target: human GLP-1R (human, UniProt P43220 24-463); test: cell-based or functional assay
Bridges are numbered along the chain shown (N, C = ends). Where no end group is shown, it is not given here. [ ]: non-standard residue; d: D form. staple K5 = not defined here; staple K6 = not defined here; staple K9 = not defined here; Aib = CC(C)(N)C(=O)O
Entries and their EC50 cAMP 0% FBS

Past entries and their recorded results:
[[record]]
binder = "Y[Aib]EGTFTSDYSIYLDKKAQ[Aib]AFVKWLIAQGPSSGAPPPS (linker 17-24 via staple K6; reading uncertain) [Conjugate 160]"
result = "0.03 nM"

[[record]]
binder = "Y[Aib]EGTFTSDYSIYKDKQAA[Aib]KFKNWLKAGGPSSGAPPPS (linker 23-27 via staple K5; reading uncertain) [Conjugate 158]"
result = "98.3 nM"

[[record]]
binder = "Y[Aib]EGTFTSDYSIYKDKQAA[Aib]KFKNWLKAGGPSSGAPPPS (linker 23-27 via staple K9; reading uncertain) [Conjugate 159]"
result = "1180 nM"


Next binder, EC50 cAMP 0% FBS to be filled in.
Inquiry: Return EC50 cAMP 0% FBS (reported value) for this binder: Y[Aib]EGTFTSDYSIYLDKKAQ[Aib]AFVKWLIAQGPSSGAPPPS (linker 17-24 via staple K5; reading uncertain) [Conjugate 163]
Reply text: 0.24 nM

The values you see were collected from patent US20230071371A1.
